test-name: Tissue half-life (t1/2) and Cmax in plasma, brain, kidney and liver after oral administration to CD-1 mice
Type: in vivo, mouse
applied-conditions: male, mouse, liver t1/2, 30 mg/kg oral gavage (PO), read-out: Half-Lives (h) Liver (converted)
parameter: half-life (h)

(A) C[C@@H]1[C@@H](N=C(Nc2ccc3c(=O)n(CCc4ccc(Cl)cc4Cl)c(-c4cnccn4)nc3c2)N2CCN[C@@H](C(F)F)C2)C[C@H]2C[C@@H]1C2(C)C [Example 228]
(B) COc1ccc(CCn2cnc3cc(N/C(=N/[C@H]4C[C@@H]5C[C@H]([C@@H]4C)C5(C)C)N(C)CCO)ccc3c2=O)c(F)c1 [Example 288]
Compare the recorded half-life of A and B ; state which is larger. When you have decided, please share the label of that item. A

(a) COc1ccc(CCn2c(-c3ncc[nH]3)nc3cc(NC(=N[C@H]4C[C@H]5C[C@@H]([C@@H]4C)C5(C)C)N4CCN[C@@H](CF)C4)ccc3c2=O)c(F)c1 [Example 255]
(b) C[C@@H]1[C@@H](/N=C(/Nc2ccc3c(=O)n(CCc4ccc(Cl)cc4Cl)cnc3c2)N2CC(O)C2)C[C@@H]2C[C@H]1C2(C)C [Example 337]
Compare the recorded half-life of a and b ; state which is larger. When you have decided, please share the label of that item. a
(a: 7.3 h, b: 4.6 h)

(A) COc1ccc(CCn2c(-c3cccnc3)nc3cc(N/C(=N/[C@H]4C[C@@H]5C[C@H]([C@@H]4C)C5(C)C)N4C[C@@H](C)N(O)[C@@H](C)C4)ccc3c2=O)c(F)c1 [Example 296]
(B) C[C@@H]1[C@@H](N=C(Nc2ccc3c(=O)n(CCc4ccc(Br)cc4F)c(-c4cnccn4)nc3c2)N2CCN[C@@H](C(F)F)C2)C[C@H]2C[C@@H]1C2(C)C [Example 233]
Returns the identifier with the smallest measured half-life among A and B . When you have decided, please share the label of that item. A
(A: 3.2 h, B: 44 h)

(1) COc1ccc(CCn2c(NC3CC3)nc3cc(NC(=N[C@H]4C[C@H]5C[C@@H]([C@@H]4C)C5(C)C)N4CCN[C@@H](CF)C4)ccc3c2=O)c(F)c1 [Example 258]
(2) C[C@@H]1C(/N=C(/Nc2ccc3c(=O)n(CCc4ccc(Cl)cc4Cl)c(-c4cnccn4)nc3c2)N2CC(=O)N[C@@H](C)C2)C[C@H]2C[C@@H]1C2(C)C (stereo partly drawn) [Example 229]
Returns the identifier with the smallest measured half-life among 1 and 2 . When you have decided, please share the label of that item. 1
(1: 2.9 h, 2: 16 h)
